Origin of the recorded values: PubChem BioAssay (NCI)

Assay: NCI Yeast Anticancer Drug Screen. Data for the mec2-1 strain (AID 157)
Run conditions: S. cerevisiae mec2-1 strain, at 33.0 µM, hits give high values
Compounds without any hit were thinned out: in the full panel of roughly 79,000, 15% have a hit.
Here the recorded growth inhibition is given for each entry.
# unit: % | format: bare number

Example entries and their recorded answers appear below.
Compound | Display unit | growth inhibition
Cc1c(C2=C(Br)C(=O)N(C)C2=O)c(=O)n(C)c(=O)n1C | % | 45
O=C(/C=C/c1cccc(Br)c1)c1cccs1 | % | 99
NC(N)=N/N=C\c1c2ccccc2cc2ccccc12 | % | -10

-- ask Could you share which growth inhibition value was measured for CC(CC(C)(C)[N+](C)(C)C)[N+](C)(C)C (stereo unspecified) ?
-- reply 2

-- ask // returns reported growth inhibition for input O=C(CC(=O)n1nc(-c2ccccc2)c(N=Nc2ccccc2C(=O)O)c1-c1ccccc1)Nc1ccc(Cl)cc1
-- reply -3

-- ask Data request, read-out growth inhibition, for Nc1ncncc1C(C1=C(O)COC1=O)C1=C(O)COC1=O
-- reply 8

-- ask Look at this compound and give its reported growth inhibition. COc1cccc2nc3ccccc3nc12
-- reply 35

-- ask Please give the measured growth inhibition for this compound: COC(=O)C1=C(C)NC(C)=C(C(=O)OC)C1c1cccc(/[N+]([O-])=C/c2ccccc2)c1
-- reply 34

-- ask Given O=C(O)c1cccc(-c2c3ccc(=O)cc-3oc3cc(O)ccc23)c1 , state its recorded growth inhibition.
-- reply 84

-- ask // query growth inhibition value for entry C/C(=N\NC(=S)SCc1ccccc1)c1ccccn1
-- reply 96

-- ask Looking for the measured growth inhibition of Cc1cc(S(=O)(=O)/N=C(/NN)NNc2cccc(C(F)(F)F)n2)c(S)cc1Cl , can you help?
-- reply -7
